Cited source: ChEMBL document CHEMBL1125361

Recorded Ki by entry
assayedSystem: Kappa-type opioid receptor (Cavia porcellus, UniProt P41144)
Sequence (P41144 whole entry): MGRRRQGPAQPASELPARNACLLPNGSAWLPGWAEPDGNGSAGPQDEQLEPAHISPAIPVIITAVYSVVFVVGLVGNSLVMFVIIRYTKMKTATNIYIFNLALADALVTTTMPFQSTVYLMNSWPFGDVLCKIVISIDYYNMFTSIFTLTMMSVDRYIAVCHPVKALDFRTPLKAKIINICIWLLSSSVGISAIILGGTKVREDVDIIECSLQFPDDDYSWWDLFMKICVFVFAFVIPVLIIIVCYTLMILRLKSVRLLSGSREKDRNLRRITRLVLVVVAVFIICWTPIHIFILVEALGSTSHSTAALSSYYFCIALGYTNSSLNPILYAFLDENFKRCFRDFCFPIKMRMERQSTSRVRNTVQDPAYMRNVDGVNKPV
method: Inhibition of [3H]- bremazocine to opioid receptor kappa of guinea pig […] membranes was determined
Answer by giving the amount and then stating its unit.

Known Ki results, listed for orientation:
INSERT INTO assay_data (substance, endpointname, result) VALUES
  ('H-YGGFLK(Ac)RIRPKLK-NH2', 'Ki', '0.024 nM'),
  ('H-YGGFLKRIRPKLK-NH2', 'Ki', '0.02 nM'),
  ('H-YGGFLRK(Ac)IRPKLK-NH2', 'Ki', '0.14 nM'),
  ('H-YGGFLRKIRPKLK-NH2', 'Ki', '0.021 nM');

Then this substance:
Look up Ki for this substance: H-YGGFLRRIKPKLK-NH2 0.0067 nM

---

assayedSystem: Mu-type opioid receptor (Rattus norvegicus, UniProt P33535)
Sequence (P33535 whole entry): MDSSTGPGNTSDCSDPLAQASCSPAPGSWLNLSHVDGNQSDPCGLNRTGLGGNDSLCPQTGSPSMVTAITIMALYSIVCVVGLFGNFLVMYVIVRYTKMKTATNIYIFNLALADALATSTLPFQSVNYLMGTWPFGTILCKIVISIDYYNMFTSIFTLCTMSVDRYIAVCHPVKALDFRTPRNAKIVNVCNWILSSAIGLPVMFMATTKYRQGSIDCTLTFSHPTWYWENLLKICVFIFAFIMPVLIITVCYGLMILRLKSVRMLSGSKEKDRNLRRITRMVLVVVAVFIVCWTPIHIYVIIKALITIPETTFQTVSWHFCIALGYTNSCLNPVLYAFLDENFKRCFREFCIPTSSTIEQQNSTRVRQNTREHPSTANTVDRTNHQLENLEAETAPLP
method: Inhibition of [3H]DAMGO to opioid receptor mu of rat fore brain membranes was determined
Type: cell membranes, Membrane
endpointName: pKi
The value called pKi is obtained by taking minus log10 of the concentration in mol/L.

Known pKi results, listed for orientation:
INSERT INTO assay_data (substance, result) VALUES
  ('H-YGGFLRRIKPKLK-NH2', 10.34),
  ('H-YGGFLRKIRPKLK-NH2', 10.26),
  ('H-YGGFLRK(Ac)IRPKLK-NH2', 9.74);

Look up pKi for this substance: H-YGGFLK(Ac)RIRPKLK-NH2 10.74

Look up pKi for this substance: H-YGGFLKRIRPKLK-NH2 10.12

---

assayedSystem: Delta-type opioid receptor (Rattus norvegicus, UniProt P33533)
Sequence (P33533 whole entry): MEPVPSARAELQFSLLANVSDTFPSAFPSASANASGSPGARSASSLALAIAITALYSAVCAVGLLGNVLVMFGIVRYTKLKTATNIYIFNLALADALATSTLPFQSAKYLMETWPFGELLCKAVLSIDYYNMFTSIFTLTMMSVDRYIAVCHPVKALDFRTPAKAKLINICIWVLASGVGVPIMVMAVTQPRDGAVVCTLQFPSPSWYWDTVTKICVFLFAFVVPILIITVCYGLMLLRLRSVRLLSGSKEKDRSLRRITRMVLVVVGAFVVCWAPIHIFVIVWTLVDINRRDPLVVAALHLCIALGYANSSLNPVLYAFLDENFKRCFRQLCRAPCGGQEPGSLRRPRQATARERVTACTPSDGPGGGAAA
method: Inhibition of [3H]DPDPE to opioid receptor delta of rat fore brain membranes was determined
Type: cell membranes, Membrane
pKi: −log10 of the molar value.
If the reported pKi equals or exceeds 9, assign yes. If not, assign no.

Tell me whether pKi is at least 9 here: H-YGGFLK(Ac)RIRPKLK-NH2 yes

Tell me whether pKi is at least 9 here: H-YGGFLRRIKPKLK-NH2 no

Tell me whether pKi is at least 9 here: H-YGGFLKRIRPKLK-NH2 no

---

assayedSystem: Opioid receptor (mu and kappa) (Cavia porcellus, UniProt P41144+P97266)
method: Opioid receptor activity in guinea pig ileum
Type: functional, tissue-based
endpointName: IC50 (nM)
Please state the figure in nM; there is no need to write the unit.

INSERT INTO results (structureassmiles, assayedsystem, result) VALUES
  ('CC[C@H](C)[C@H](NC(=O)[C@H](CCCN=C(N)N)NC(=O)[C@H](CCCN=C(N)N)NC(=O)[C@H](CC(C)C)NC(=O)[C@H](Cc1ccccc1)NC(=O)CNC(=O)CNC(=O)[C@@H](N)Cc1ccc(O)cc1)C(=O)N[C@@H](CCCCNC(C)=O)C(=O)N1CCC[C@H]1C(=O)N[C@@H](CCCCN)C(=O)N[C@@H](CC(C)C)C(=O)N[C@@H](CCCCN)C(N)=O', 'Opioid receptor (mu and kappa) (Cavia porcellus, UniProt P41144+P97266)', 0.26),
  ('CC[C@H](C)[C@H](NC(=O)[C@H](CCCN=C(N)N)NC(=O)[C@H](CCCN=C(N)N)NC(=O)[C@H](CC(C)C)NC(=O)[C@H](Cc1ccccc1)NC(=O)CNC(=O)CNC(=O)[C@@H](N)Cc1ccc(O)cc1)C(=O)N[C@@H](CCCN=C(N)N)C(=O)N1CCC[C@H]1C(=O)N[C@@H](CCCCN)C(=O)N[C@@H](CC(C)C)C(=O)N[C@@H](CCCCNC(C)=O)C(N)=O', 'Opioid receptor (mu and kappa) (Cavia porcellus, UniProt P41144+P97266)', 0.19),
  ('CC[C@H](C)[C@H](NC(=O)[C@H](CCCN=C(N)N)NC(=O)[C@H](CCCN=C(N)N)NC(=O)[C@H](CC(C)C)NC(=O)[C@H](Cc1ccccc1)NC(=O)CNC(=O)CNC(=O)[C@@H](N)Cc1ccc(O)cc1)C(=O)N[C@@H](CCCN=C(N)N)C(=O)N1CCC[C@H]1C(=O)N[C@@H](CCCCN)C(=O)N[C@@H](CC(C)C)C(=O)N[C@@H](CCCCN)C(N)=O', 'Opioid receptor (mu and kappa) (Cavia porcellus, UniProt P41144+P97266)', 0.24);

Then this compound:
Look up IC50 for this compound: CC[C@H](C)[C@H](NC(=O)[C@H](CCCN=C(N)N)NC(=O)[C@H](CCCN=C(N)N)NC(=O)[C@H](CC(C)C)NC(=O)[C@H](Cc1ccccc1)NC(=O)CNC(=O)CNC(=O)[C@@H](N)Cc1ccc(O)cc1)C(=O)N[C@@H](CCCN=C(N)N)C(=O)N1CCC[C@H]1C(=O)N[C@@H](CCCCNC(C)=O)C(=O)N[C@@H](CC(C)C)C(=O)N[C@@H](CCCCN)C(N)=O 0.16

---

assayedSystem: Opioid receptor (mu and kappa) (Cavia porcellus, UniProt P41144+P97266)
method: Opioid receptor activity in guinea pig ileum
Assay type: functional, tissue-based
endpointName: IC50 (nM)
Please state the figure in nM; there is no need to write the unit.

Known IC50 results, listed for orientation:
INSERT INTO assay_data (substance, endpointname, result) VALUES
  ('H-YGGFLRKIRPKLK-NH2', 'IC50', 0.19),
  ('H-YGGFLRRIKPKLK-NH2', 'IC50', 0.27),
  ('H-YGGFLKRIRPKLK-NH2', 'IC50', 0.25),
  ('H-YGGFLK(Ac)RIRPKLK-NH2', 'IC50', 0.64);

Then this substance:
Look up IC50 for this substance: H-YGGFLRK(Ac)IRPKLK-NH2 0.34

---

Observed Ki values for Mu-type opioid receptor (Rattus norvegicus) are listed in what follows.
Please state the figure in nM; there is no need to write the unit.

Known Ki results, listed for orientation:
INSERT INTO results (structureassmiles, endpointunit, result) VALUES
  ('CC[C@H](C)[C@H](NC(=O)[C@H](CCCN=C(N)N)NC(=O)[C@H](CCCN=C(N)N)NC(=O)[C@H](CC(C)C)NC(=O)[C@H](Cc1ccccc1)NC(=O)CNC(=O)CNC(=O)[C@@H](N)Cc1ccc(O)cc1)C(=O)N[C@@H](CCCN=C(N)N)C(=O)N1CCC[C@H]1C(=O)N[C@@H](CCCCN)C(=O)N[C@@H](CC(C)C)C(=O)N[C@@H](CCCCN)C(N)=O', 'nM', 0.4),
  ('CC[C@H](C)[C@H](NC(=O)[C@H](CCCN=C(N)N)NC(=O)[C@H](CCCN=C(N)N)NC(=O)[C@H](CC(C)C)NC(=O)[C@H](Cc1ccccc1)NC(=O)CNC(=O)CNC(=O)[C@@H](N)Cc1ccc(O)cc1)C(=O)N[C@@H](CCCCNC(C)=O)C(=O)N1CCC[C@H]1C(=O)N[C@@H](CCCCN)C(=O)N[C@@H](CC(C)C)C(=O)N[C@@H](CCCCN)C(N)=O', 'nM', 0.043),
  ('CC[C@H](C)[C@H](NC(=O)[C@H](CCCN=C(N)N)NC(=O)[C@H](CCCN=C(N)N)NC(=O)[C@H](CC(C)C)NC(=O)[C@H](Cc1ccccc1)NC(=O)CNC(=O)CNC(=O)[C@@H](N)Cc1ccc(O)cc1)C(=O)N[C@@H](CCCN=C(N)N)C(=O)N1CCC[C@H]1C(=O)N[C@@H](CCCCN)C(=O)N[C@@H](CC(C)C)C(=O)N[C@@H](CCCCNC(C)=O)C(N)=O', 'nM', 0.061);

Then this compound:
Field: Ki (Mu-type opioid receptor (Rattus norvegicus)). Entry: CC[C@H](C)[C@H](NC(=O)[C@H](CCCN=C(N)N)NC(=O)[C@H](CCCN=C(N)N)NC(=O)[C@H](CC(C)C)NC(=O)[C@H](Cc1ccccc1)NC(=O)CNC(=O)CNC(=O)[C@@H](N)Cc1ccc(O)cc1)C(=O)N[C@@H](CCCN=C(N)N)C(=O)N1CCC[C@H]1C(=O)N[C@@H](CCCCNC(C)=O)C(=O)N[C@@H](CC(C)C)C(=O)N[C@@H](CCCCN)C(N)=O 0.03

---

Observed pKi values for Kappa-type opioid receptor (Cavia porcellus) are listed in what follows.
The value called pKi is obtained by taking minus log10 of the concentration in mol/L.

Known pKi results, listed for orientation:
INSERT INTO assay_data (structureassmiles, result) VALUES
  ('CC[C@H](C)[C@H](NC(=O)[C@H](CCCN=C(N)N)NC(=O)[C@H](CCCN=C(N)N)NC(=O)[C@H](CC(C)C)NC(=O)[C@H](Cc1ccccc1)NC(=O)CNC(=O)CNC(=O)[C@@H](N)Cc1ccc(O)cc1)C(=O)N[C@@H](CCCCNC(C)=O)C(=O)N1CCC[C@H]1C(=O)N[C@@H](CCCCN)C(=O)N[C@@H](CC(C)C)C(=O)N[C@@H](CCCCN)C(N)=O', 11.38),
  ('CC[C@H](C)[C@H](NC(=O)[C@H](CCCN=C(N)N)NC(=O)[C@H](CCCN=C(N)N)NC(=O)[C@H](CC(C)C)NC(=O)[C@H](Cc1ccccc1)NC(=O)CNC(=O)CNC(=O)[C@@H](N)Cc1ccc(O)cc1)C(=O)N[C@@H](CCCN=C(N)N)C(=O)N1CCC[C@H]1C(=O)N[C@@H](CCCCN)C(=O)N[C@@H](CC(C)C)C(=O)N[C@@H](CCCCNC(C)=O)C(N)=O', 9.82);

Field: pKi (Kappa-type opioid receptor (Cavia porcellus)). Entry: CC[C@H](C)[C@H](NC(=O)[C@H](CCCN=C(N)N)NC(=O)[C@H](CCCN=C(N)N)NC(=O)[C@H](CC(C)C)NC(=O)[C@H](Cc1ccccc1)NC(=O)CNC(=O)CNC(=O)[C@@H](N)Cc1ccc(O)cc1)C(=O)N[C@@H](CCCN=C(N)N)C(=O)N1CCC[C@H]1C(=O)N[C@@H](CCCCNC(C)=O)C(=O)N[C@@H](CC(C)C)C(=O)N[C@@H](CCCCN)C(N)=O 10.28

Field: pKi (Kappa-type opioid receptor (Cavia porcellus)). Entry: CC[C@H](C)[C@H](NC(=O)[C@H](CCCN=C(N)N)NC(=O)[C@H](CCCN=C(N)N)NC(=O)[C@H](CC(C)C)NC(=O)[C@H](Cc1ccccc1)NC(=O)CNC(=O)CNC(=O)[C@@H](N)Cc1ccc(O)cc1)C(=O)N[C@@H](CCCN=C(N)N)C(=O)N1CCC[C@H]1C(=O)N[C@@H](CCCCN)C(=O)N[C@@H](CC(C)C)C(=O)N[C@@H](CCCCN)C(N)=O 10.64
